Target: mouse IGF-I (mouse, UniProt P05017 49-118)
Experiment: cell-based or functional assay
measured_property: Mouse IGF-I EC50 (nM), n = 1, phosphorylation of hIGF-IR in NIH3T3 cells

binder="mAb 7.159.2 (antibody, V domains shown, Fully human XenoMouse hybridoma mAb, lambda light chain (V1-19/JL2); Sister clones 7.159.1 and 7.159.2 are said to be identical; also called 7.159.1; 7_159_1) VH: QVQLVQSGAEVKKPGASVKVSCKASGYTFTSYDINWVRQATGQGLEWMGWMNPNSGNTGYAQKFQGRVTMTRNTSISTAYMELSSLRSEDTAVYYCARDPYYYYYGMDVWGQGTTVTVSS VL: QSVLTQPPSVSAAPGQKVTISCSGSSSNIENNHVSWYQQLPGTAPKLLIYDNNKRPSGIPDRFSGSKSGTSATLGITGLQTGDEADYYCETWDTSLSAGRVFGGGTKLTVLG" measured_value=2.8
binder="mAb 7.34.1 (antibody, V domains shown, Fully human XenoMouse hybridoma mAb, lambda light chain (V1-13/JL2); also called ATCC PTA-7423) VH: QVQLQESGPGLVKPSETLSLTCTVSGGSISSYYWSWIRQPPGRGLEWIGYFFYSGYTNYNPSLKSRVTMSVDTSKNQFSLKLSSVTAADTAVYYCACITGTTKGGMDVWGQGATVTVSS VL: QSVLTQAPSVSGAPGQRVTISCTGRSSNIGAGYDVHWYQQFPGTAPKLLIYGNSNRPSGVPDRFSGSKSGTSASLAITGLQAEDEADYYCQSYDSSLSGSVFGGGTKLTVLG" measured_value=6
binder="mAb 7.251.3 (antibody, V domains shown, Fully human XenoMouse hybridoma mAb, lambda light chain (V1-13/JL2); also called ATCC PTA-7422) VH: QVQLQESGPGLVKPSETLSLTCTVSGGSISSYYWSWIRQPPGKGLEWIGYFFYSGYTNYNPSLKSRVTISVDTSKNQFSLKLSSVTAADTAVYYCACITGTTKGGMDVWGQGTTVTVSS VL: QSVLTQPPSVSGAPGQRVTISCTGSSSNIGAGYDVHWYQQLPGTAPKLLIYGNNNRPSGVPDRFSGSKSGTSASLAITGLQADDEADYYCQSFDSSLSGSVFGGGTKLTVLG" measured_value=6.7
binder="mAb 7.234.2 (antibody, V domains shown, Kappa light chain (L5/JK3); also called 7.234.1; 7_234_1) VH: QLQLQESGPGLVKPSETLSLTCTVSGGSINSSSNYWGWIRQPPGKGLAWIGGIYYSGSTYYNPSLRSRVTMSVDTSKNQFSLKLSSVTAADTAVYYCARQRGHSSGWWYFDLWGRGTLVTVSS VL: DIQMTQSPSSVSASVGDRVTITCRASRGISSWLAWYQQRPGKAPKLLIYTASSLQSGVPSRFSGSGSGTDFTLTISSLQPEDFATYYCQQANSFPFTFGPGTKVDIKR" measured_value=46

Source: patent US20070196376A1
